- System tested: rat TIMP-1 (rat, UniProt P30120 24-217)
- Sequence (P30120 24-217 limits assumed): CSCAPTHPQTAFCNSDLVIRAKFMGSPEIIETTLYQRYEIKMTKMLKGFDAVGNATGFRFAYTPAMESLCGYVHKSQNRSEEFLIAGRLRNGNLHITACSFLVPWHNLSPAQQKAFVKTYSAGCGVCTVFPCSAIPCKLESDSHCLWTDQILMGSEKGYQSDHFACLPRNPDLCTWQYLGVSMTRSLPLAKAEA
- Protocol: SPR (BIAcore), TIMP-1 coupled to chip, monovalent Fab
pKd: −log10 of the molar value.
Consider the following binders; for each one, report its pKd.

MS-BW-14 (Fab, V domains shown, Fab, FLAG + Strep-tag II; not tied by name; also called MS-BW-14 Fab) VH: QVQLVQSGAEVKKPGSSVKVSCKASGGTFSSYAISWVRQAPGQGLEWMGGIIPIFGTANYAQKFQGRVTITADESTSTAYMELSSLRSEDTAVYYCARWSDQSYHYYWHPYFDVWGQGTLVTVSS VL: DIVLTQPPSVSGAPGQRVTISCSGSSSNIGSNYVSWYQQLPGTAPKLLIYDNNQRPSGVPDRFSGSKSGTSASLAITGLQSEDEADYYCQSWDLEPYVFGGGTKLTVLG ... 8.00
MS-BW-30 (Fab, V domains shown, Fab, FLAG + Strep-tag II; not tied by name) VH: QVQLVQSGAEVKKPGESLKISCKGSGYSFTSYWIGWVRQMPGKGLEWMGIIYPGDSDTRYSPSFQGQVTISADKSISTAYLQWSSLKASDTAMYYCARYAGHQYEFFFDFWGQGTLVTVSS VL: DIELTQPPSVSVAPGQTARISCSGDALGDKYASWYQQKPGQAPVLVIYDDSDRPSGIPERFSGSNSGNTATLTISGTQAEDEADYYCQSRDPVGFPVFGGGTKLTVLG ... ~7.44
MS-BW-29 (Fab, V domains shown, Fab, FLAG + Strep-tag II; not tied by name) VH: QVQLVQSGAEVKKPGESLKISCKGSGYSFTSYWIGWVRQMPGKGLEWMGIIYPGDSDTRYSPSFQGQVTISADKSISTAYLQWSSLKASDTAMYYCARHDFDGSIFMDFWGQGTLVTVSS VL: DIALTQPASVSGSPGQSITISCTGTSSDVGGYNYVSWYQQHPGKAPKLMIYDVSNRPSGVSNRFSGSKSGNTASLTISGLQAEDEADYYCQSYDVTPRVFGGGTKLTVLG ... ~6.67

Give one value of pKd per listed binder.
1. MS-BW-17 (Fab, V domains shown, Fab, FLAG + Strep-tag II; not tied by name) VH: QVQLVQSGAEVKKPGESLKISCKGSGYSFTSYWIGWVRQMPGKGLEWMGIIYPGDSDTRYSPSFQGQVTISADKSISTAYLQWSSLKASDTAMYYCARLTNYFDSIYYDHWGQGTLVTVSS VL: DIALTQPASVSGSPGQSITISCTGTSSDVGGYNYVSWYQQHPGKAPKLMIYDVSNRPSGVSNRFSGSKSGNTASLTISGLQAEDEADYYCQSYDPSHPSKVFGGGTKLTVLG
2. MS-BW-5 (Fab, V domains shown, Fab, FLAG + Strep-tag II; not tied by name) VH: QVQLVQSGAEVKKPGSSVKVSCKASGGTFSSYAISWVRQAPGQGLEWMGGIIPIFGTANYAQKFQGRVTITADESTSTAYMELSSLRSEDTAVYYCARGLYWAVYPYFDFWGQGTLVTVSS VL: DIVLTQPPSVSGAPGQRVTISCSGSSSNIGSNYVSWYQQLPGTAPKLLIYDNNQRPSGVPDRFSGSKSGTSASLAITGLQSEDEADYYCQSRDFNRGPVFGGGTKLTVLG
3. MS-BW-58 (Fab, V domains shown, Fab, FLAG + Strep-tag II; not tied by name) VH: QVQLQQSGPGLVKPSQTLSLTCAISGDSVSSNSAAWNWIRQSPGRGLEWLGRTYYRSKWYNDYAVSVKSRITINPDTSKNQFSLQLNSVTPEDTAVYYCARWMTPPGHYYGYTFDVWGQGTLVTVSS VL: DIELTQPPSVSVAPGQTARISCSGDALGDKYASWYQQKPGQAPVLVIYDDSDRPSGIPERFSGSNSGNTATLTISGTQAEDEADYYCQSWDPSHYYVFGGGTKLTVLG
4. MS-BW-10 (Fab, V domains shown, Fab, FLAG + Strep-tag II; not tied by name) VH: QVQLVQSGAEVKKPGASVKVSCKASGYTFTSYYMHWVRQAPGQGLEWMGWINPNSGGTNYAQKFQGRVTMTRDTSISTAYMELSSLRSEDTAVYYCARLVGIVGYKPDELLYFDVWGQGTLVTVSS VL: DIELTQPPSVSVAPGQTARISCSGDALGDKYASWYQQKPGQAPVLVIYDDSDRPSGIPERFSGSNSGNTATLTISGTQAEDEADYYCQSYDYSLLVFGGGTKLTVLG
5. MS-BW-60 (Fab, V domains shown, Fab, FLAG + Strep-tag II; not tied by name) VH: QVQLVQSGAEVKKPGESLKISCKGSGYSFTSYWIGWVRQMPGKGLEWMGIIYPGDSDTRYSPSFQGQVTISADKSISTAYLQWSSLKASDTAMYYCARFVSYNGSVPYFDYWGQGTLVTVSS VL: DIALTQPASVSGSPGQSITISCTGTSSDVGGYNYVSWYQQHPGKAPKLMIYDVSNRPSGVSNRFSGSKSGNTASLTISGLQAEDEADYYCQSMDFRLMHVFGGGTKLTVLG
6. MS-BW-32 (Fab, V domains shown, Fab, FLAG + Strep-tag II; not tied by name) VH: QVQLVQSGAEVKKPGSSVKVSCKASGGTFSSYAISWVRQAPGQGLEWMGGIIPIFGTANYAQKFQGRVTITADESTSTAYMELSSLRSEDTAVYYCARTKYVGSEDVWGQGTLVTVSS VL: DIALTQPASVSGSPGQSITISCTGTSSDVGGYNYVSWYQQHPGKAPKLMIYDVSNRPSGVSNRFSGSKSGNTASLTISGLQAEDEADYYCQSYDFSHYFFVFGGGTKLTVLG
7. MS-BW-62 (Fab, V domains shown, Fab, FLAG + Strep-tag II; not tied by name) VH: QVQLVQSGAEVKKPGESLKISCKGSGYSFTSYWIGWVRQMPGKGLEWMGIIYPGDSDTRYSPSFQGQVTISADKSISTAYLQWSSLKASDTAMYYCARLFTYPFLYFDVWGQGTLVTVSS VL: DIALTQPASVSGSPGQSITISCTGTSSDVGGYNYVSWYQQHPGKAPKLMIYDVSNRPSGVSNRFSGSKSGNTASLTISGLQAEDEADYYCQSDFPVMVFGGGTKLTVLG

7.89
~6.68
~6.86
~6.70
~7.52
~7.04
~7.44
